Attribute: Clearance of Human microsome
Experiment: Human microsome stability assay
Assay type: in vitro ADME
Settings: human liver microsomes, 1 µM test compound, 0.5 mg/mL protein, 37°C, up to 30 minutes
Give the value in mL/min/kg but do not write mL/min/kg after it.

Compound: C[C@@H]1CN(c2ccc(C#N)c3ncccc23)C[C@H](CN2Cc3ccc(N4CCNCC4)cc3C2)O1 [Example 21]
Clearance of Human microsome, mL/min/kg: 6.15

Compound: C[C@@H]1CN(c2ccc(C#N)c3ncccc23)C[C@H](CN2CCc3cc(N4CCNCC4)ccc3C2)O1 [Example 19]
Clearance of Human microsome, mL/min/kg: 6.17

Compound: C[C@@H]1CN(c2ccc(C#N)c3ncccc23)C[C@H](CNCc2ccccc2)O1 [ER-886509, reference compound]
Clearance of Human microsome, mL/min/kg: 15.2

Compound: C[C@@H]1CN(c2ccc(C#N)n3nccc23)C[C@H](CNCc2ccc(N3CCNCC3)cc2)O1 [Example 16]
Clearance of Human microsome, mL/min/kg: 7.31

Compound: C[C@@H]1CN(c2ccc(C#N)c3ncccc23)C[C@H](CN2Cc3ccc(N4CCNCC4C(=O)O)cc3C2)O1 (stereo partly drawn) [Example 56]
Clearance of Human microsome, mL/min/kg: 6.51

Tell me measured Clearance of Human microsome for C[C@@H]1CN(c2ccc(C#N)c3ncccc23)C[C@H](CN2Cc3ccccc3C2)O1 [Example R3, reference compound] please.
15.4

All values here come from patent EP3623369A1.
